# Target Of Assay: Rabies virus glycoprotein G, ERA strain (attenuated vaccine strain, ATCC VR332) (Rabies virus, ERA strain (genotype 1 lyssavirus)) (UniProt P03524)
# Sequence (P03524 20-524 limits assumed): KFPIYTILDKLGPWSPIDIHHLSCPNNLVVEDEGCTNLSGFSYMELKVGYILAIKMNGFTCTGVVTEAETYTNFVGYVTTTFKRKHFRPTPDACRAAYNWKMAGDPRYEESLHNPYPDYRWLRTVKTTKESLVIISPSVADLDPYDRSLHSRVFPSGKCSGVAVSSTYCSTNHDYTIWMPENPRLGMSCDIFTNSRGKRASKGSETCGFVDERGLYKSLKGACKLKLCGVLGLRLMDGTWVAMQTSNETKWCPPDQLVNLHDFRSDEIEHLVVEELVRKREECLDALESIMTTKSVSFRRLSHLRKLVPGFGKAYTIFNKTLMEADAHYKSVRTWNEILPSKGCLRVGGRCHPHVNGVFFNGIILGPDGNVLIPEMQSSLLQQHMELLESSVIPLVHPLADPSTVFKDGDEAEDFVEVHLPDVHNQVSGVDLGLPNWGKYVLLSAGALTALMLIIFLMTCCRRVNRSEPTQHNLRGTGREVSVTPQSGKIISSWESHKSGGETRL
# Assay Protocol: cell-based or functional assay
Experimental Readout: ERA neutralizing antibody titer (RFFIT): EU/ml

# Binder, Result
rows = [
    ("LG213B7 (VHH) VHH: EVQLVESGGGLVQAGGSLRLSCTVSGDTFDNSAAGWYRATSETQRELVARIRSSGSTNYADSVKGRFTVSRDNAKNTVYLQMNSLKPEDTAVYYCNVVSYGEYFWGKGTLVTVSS", "5.51 EU/ml"),
    ("LG212B2 (VHH) VHH: EMQLVESGGGLVQAGDSLRLSCAASGDTFSWYVMAWFRQAPGKEREFVTWINRSGASTYYADSVKGRFTIFRDNDKNTVYLQMNSLKPEDTAVYYCAAGGFYGLRTTEERYDTWGQGTQVTVSS", "1.84 EU/ml"),
    ("LG213H7 (VHH) VHH: EVQLVESGGGLVQAGGSLRLSCAASGRTLSSYRMGWFRQAPGKEREFISTISWNGRSTYYADSVKGRFIFSEDNAKNTVYLQMNSLKPEDTAVYYCAAALIGGYYSDVDAWSYWGPGTQVTVSS", "12.2 EU/ml"),
    ("LG213E6 (VHH) VHH: EVQLVESGGGLVQAGASLRLSCAASGSTLSRYGVGWFRQAPGKERELVASVDWSGSRTYYADSVKGRFTISRDNAKNTGYLQMNSLKPDDTAVYYCAADSSVVPGIEKYDDWGLGTQVTVSS", "288 EU/ml"),
    ("LG192A8 (VHH) VHH: EVQLVESGGGLVQAGGSLRLSCAASERTVIAYTMGWFRRAPGKERDFVAAMNWNGGNTIYADSAKGRFTISRDNAKNTVYLQMNSLKAEDTAVYYCAARPRFWGSYEYDYWGQGTQVTVSS", "< 0.5 EU/ml"),
    ("LG214F8 (VHH) VHH: EVQLVESGGDLVQAGGSLRLSCVASGSTYSINAMGWYRQAPGKLRELVAAFRTGGSTDYADSVKGRFTISRDTAKNTVYLQMNSLKPEDTAVYYCNAEVIYYPYDYWGQGTQVTVSS", "3.81 EU/ml"),
    ("LG213D6 (VHH) VHH: EVQLVESGGGLVQPGGSLRLSCAASGFTFGDSDMSWVRQAPGEGPEWVAGINSGGGSTVYADSVKGRFTISRDNAKNMLYLQMNSLKPEDTAVYLCAQGLMAEVTAGYWGQGTQVTVSS", "< 0.5 EU/ml"),
    ("LG192C4 (VHH) VHH: EVQLVESGGGLVQAGGSLRLSCEASGRTFSSYAMVGWFRQAPGKEREFVAAVTRWSGARTVYADSVKGRFTISRDNAENTVYLQMNSLKPEDTAVYTCAADSTNRNSGAVYYSWAYDYWGQGTQVTVSS", "< 0.5 EU/ml"),
]
